B1: PRPH (parent)
chain: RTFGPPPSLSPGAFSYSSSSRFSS

Variants of: B1
Assay: protein stability index of a GFP-peptide fusion (GPS, HEK-293T) (PSI 1-6); higher = more stable;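 further: lentivirally expressed fusions sorted by FACS into six bins by GFP to DsRed ratio, PSI derived from sequencing read proportions per bin multiplied by bin number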
Conditions: c terminus: a fixed tail appended
# binarize protein stability index: threshold 3 inclusive, high side condition met, low side condition not met

L9D :: condition met
P7L :: condition not met
F22Q :: condition met

Now consider a different variant.
Req: Hi, just wondering whether `F22A` shows protein stability index of 3 or higher.
Resp: condition met
